Tested on: α1,3-L-fucosyltransferase of the soluble fraction of human ovarian tumor
assay_name: Assay of α1,3-fucosyltransferase with synthetic acceptors, partially purified enzyme of ovarian tumor soluble fraction
Type: biochemical
details: acceptor 3.0 mM, 37° C. 18 h
Given measured [14C] Fucose Incorporated (CPM), output condition met if it is greater than or equal to 20000 CPM and condition not met if not.

{"molecule": "CC(=O)N[C@H]1C(O)O[C@H](CO)[C@@H](O[C@@H]2O[C@H](CO)[C@H](O)[C@H](O)[C@H]2O[C@@H]2O[C@@H](C)[C@@H](O)[C@@H](O)[C@@H]2O)[C@@H]1O (some centres unmarked) [2'-Fucosyl LacNAc, 2'-Fucosyl N-acetyllactosamine]", "classification": "condition met"}
{"molecule": "CO[C@H]1[C@H](O[C@H]2[C@H](O)[C@@H](NC(C)=O)[C@H](OCc3ccccc3)O[C@@H]2CO)O[C@H](CO)[C@H](O)[C@@H]1O [2'-methyl LacNAcβ-O--Bn]", "classification": "condition not met"}
{"molecule": "CC(=O)N[C@H]1[C@H](OCc2ccccc2)O[C@H](CO)[C@@H](O[C@@H]2O[C@H](CO)[C@H](O)[C@H](OS(=O)(=O)O)[C@H]2O)[C@@H]1O [3'-Sulfo LacNAcβ-O--Bn]", "classification": "condition not met"}
{"molecule": "CC(=O)N[C@H]1[C@H](OCc2ccccc2)O[C@H](CO)[C@@H](O[C@@H]2O[C@H](CO)[C@H](O)[C@H](O)[C@H]2O[C@@H]2O[C@@H](C)[C@@H](O)[C@@H](O)[C@@H]2O)[C@@H]1O [2'-Fucosyl LacNAcβ-O--Bn]", "classification": "condition met"}

----------
assay_system: serum α1,3-L-fucosyltransferase (Homo sapiens, UniProt P51993)
Construct: Sera were collected from healthy females and ovarian cancer patients; from tissue; host or cells: blood serum of ovarian cancer patients and healthy females
Sequence (P51993 35-359 limits assumed): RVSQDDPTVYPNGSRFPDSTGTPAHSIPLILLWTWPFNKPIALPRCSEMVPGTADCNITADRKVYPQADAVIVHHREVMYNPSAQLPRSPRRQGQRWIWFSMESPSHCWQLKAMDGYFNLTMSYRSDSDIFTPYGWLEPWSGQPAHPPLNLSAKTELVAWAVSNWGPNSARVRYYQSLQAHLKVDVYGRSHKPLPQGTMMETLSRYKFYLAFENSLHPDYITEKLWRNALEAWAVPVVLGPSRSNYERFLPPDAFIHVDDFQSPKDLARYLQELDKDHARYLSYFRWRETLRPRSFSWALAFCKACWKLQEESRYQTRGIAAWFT
assay_name: Assay of α1,3-fucosyltransferase with various synthetic acceptors, ovarian cancer sera as enzyme source
Type: biochemical
details: 2'-methyl LacNAc = 100

{"molecule": "CO[C@@H]1O[C@H](CO)[C@H](O)[C@H](O[C@@H]2O[C@H](CO)[C@@H](O)[C@H](O[C@@H]3O[C@H](CO)[C@H](O)[C@H](O)[C@H]3O)[C@H]2NC(C)=O)[C@H]1O [Ga1β1,3G1cNAcβ1,3Ga1β-O--Me]", "Relative Percent": "42.7%"}
{"molecule": "CC(=O)N[C@H]1[C@H](OCc2ccccc2)O[C@H](CO)[C@@H](O[C@@H]2O[C@H](CO)[C@H](O)[C@H](O)[C@H]2O[C@@H]2O[C@@H](C)[C@@H](O)[C@@H](O)[C@@H]2O)[C@@H]1O [2'-Fucosyl LacNAcβ-O--Bn]", "Relative Percent": "425.0%"}
{"molecule": "CC(=O)N[C@H]1[C@H](OCc2ccccc2)O[C@H](CO)[C@@H](O[C@@H]2O[C@H](CO)[C@H](O)[C@H](O)[C@H]2O)[C@@H]1O [LacNAcβ-O--Bn]", "Relative Percent": "358.8%"}
{"molecule": "CC(=O)N[C@H]1[C@H](OCc2ccccc2)O[C@H](CO)[C@@H](O)[C@@H]1O[C@@H]1O[C@H](CO)[C@H](O)[C@H](OS(=O)(=O)O)[C@H]1O [3-SulfoGa1β1,3G1cNAcβ-O--Bn]", "Relative Percent": "0%"}
{"molecule": "CC(=O)N[C@H]1C(O)O[C@H](CO)[C@@H](O[C@@H]2O[C@H](CO)[C@H](O)[C@H](O)[C@H]2O)[C@@H]1O[C@@H]1O[C@@H](C)[C@@H](O)[C@@H](O)[C@@H]1O (stereo partly shown) [3-Fucosyl LacNAc]", "Relative Percent": "4.7%"}
{"molecule": "CC(=O)N[C@H]1C(O)O[C@H](CO)[C@@H](O[C@@H]2O[C@H](CO)[C@H](O)[C@H](OS(=O)(=O)O)[C@H]2O)[C@@H]1O (stereo partly shown) [3'-Sulfo-LacNAc]", "Relative Percent": "340.8%"}
{"molecule": "CC(=O)N[C@H]1[C@H](OCc2ccccc2)O[C@H](CO)[C@@H](O)[C@@H]1O[C@@H]1O[C@H](CO)[C@H](O)[C@H](O)[C@H]1O [Ga1β1,3G1cNAcβ-O--Bn]", "Relative Percent": "21.7%"}
